So I've got a bunch of molecules here, and I need their TGI values.
System: NCI-H23 lung
Test: NCI tumour cell line growth inhibition, 48 h
*1 amine or outer side, *2 acyl side, *3 side chain or, on linkers, in order; H or OH if unused. Where a SMILES comes first, the peptide text is derived from it. Bridges are numbered along the chain shown (N, C = ends). Roman numbers before positions name the chains, in order. [ ]: non-standard residue; d: D form. Actinocin(9to1) = Cc1c2oc3c(C)ccc(C(=O)[*:1])c3nc-2c(C(=O)[*:2])c(N)c1=O; Hyp = O=C(O)[CH]1C[CH](O)CN1; NMeV = CN[CH](C(=O)O)C(C)C; Sar = CNCC(=O)O

Consider the following illustrative entries.
>  <Molecule>
O=C1CNC(=O)c2[nH]cnc2N1

>  <Study Target>
NCI-H23 lung

>  <Reported Result>
> 100 µM

$$$$
>  <Molecule>
Cc1ccc(NC(=O)/C(Cc2cc(=O)oc3cc(O)ccc23)=N\NC(C)(C)C)cc1C

>  <Study Target>
NCI-H23 lung

>  <Reported Result>
> 100 µM

$$$$

// each molecule listed below needs its TGI
1. O=C(c1cccnc1)N1N=C(c2ccccc2)CC1(O)c1cc(F)c(Cl)cc1Cl (centres undefined)
2. Cc1c2oc3c(C)ccc(C(=O)NC4C(=O)NC(C(C)C)C(=O)N5CC(O)CC5C(=O)N(C)CC(=O)N(C)C(C(C)C)C(=O)OC4C)c3nc-2c(C(=O)NC2C(=O)NC(C(C)C)C(=O)N3CC(O)CC3C(=O)N(C)CC(=O)N(C)C(C(C)C)C(=O)OC2C)c(N)c1=O (centres undefined) (I: TV[Hyp][Sar][NMeV] / II: TV[Hyp][Sar][NMeV]; ester I:1-I:C, II:1-II:C; linker I:N-II:N via Actinocin(9to1); configuration not given here)

Result:
1. > 100 µM
2. > 1 µM
